# TARGET ENTITY: 5-HT7 receptors (Rattus norvegicus, UniProt P32305)
# Construct: (e) 5-HT7 receptors, [^3H]-5-CT, rat hypothalamus; from tissue; host or cells: rat hypothalamus
# Sequence (P32305 whole entry): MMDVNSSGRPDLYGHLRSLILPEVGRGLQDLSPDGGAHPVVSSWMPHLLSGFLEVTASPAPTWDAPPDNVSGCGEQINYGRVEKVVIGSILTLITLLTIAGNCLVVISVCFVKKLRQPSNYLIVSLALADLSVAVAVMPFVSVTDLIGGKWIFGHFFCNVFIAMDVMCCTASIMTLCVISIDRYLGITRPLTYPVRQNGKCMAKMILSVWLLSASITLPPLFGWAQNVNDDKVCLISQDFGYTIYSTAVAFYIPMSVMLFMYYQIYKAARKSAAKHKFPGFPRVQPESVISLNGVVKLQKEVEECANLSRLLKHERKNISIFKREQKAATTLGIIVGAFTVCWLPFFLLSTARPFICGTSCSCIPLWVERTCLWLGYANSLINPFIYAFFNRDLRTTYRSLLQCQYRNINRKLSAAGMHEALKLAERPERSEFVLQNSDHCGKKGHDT
# RUN DESCRIPTION: Radioligand displacement, 5-HT7 receptors, [3H]-5-CT
# Assay type: binding
# EXPERIMENTAL PARAMETERS: read-out: Ki ± E.E. 5-HT7
ATTRIBUTE MEASURED: pKi
Reminder that pKi is minus the log10 of a molar concentration.

Report pKi for CCCN(CCC)C1CCc2cccc(O)c2C1 (stereo not shown) [Compound 8-OH-DPAT, 8-OH-DPAT, reference compound] please.
7.08

###

# TARGET ENTITY: α1 receptors
# RUN DESCRIPTION: Radioligand displacement, α1 receptors, [3H]prazosin
# EXPERIMENTAL PARAMETERS: rat cerebral cortex, read-out: Ki ± E.E. α1
ATTRIBUTE MEASURED: pKi
Reminder that pKi is minus the log10 of a molar concentration.

Report pKi for O=C1CSC(=O)N1CCCCNCCOc1cccc2ccccc12 [Compound 15] please.
7.26

Report pKi for O=C1C2CCCN2C(=O)N1CCCCNCc1cccc2ccccc12 (stereo not drawn) [Compound 7] please.
7.30

Report pKi for Cc1ccc(N(CC2=NCCN2)c2cccc(O)c2)cc1 [Phentolamine, reference compound] please.
8.21

Report pKi for O=C1C2CCCN2C(=O)N1CCCCNCCOc1cccc2ccccc12 (stereo not drawn) [Compound 14] please.
7.51

Report pKi for O=C1CSC(=O)N1CCCCNCCOc1ccccc1 [Compound 13] please.
7.57

Report pKi for O=C1C2CCCN2C(=O)N1CCCCNCCc1ccc2ccccc2c1 (stereo not drawn) [Compound 11] please.
7.00

###

Form: system (5-HT4 receptors (Rattus norvegicus)), quantity (Ki), values below.

Report Ki for O=C1CSC(=O)N1CCCCNCCc1cccc2ccccc12 please.
> 1 µM

Report Ki for COc1cc(COc2cc(N)c(Cl)cc2C(=O)CCC2CCN(CCNS(C)(=O)=O)CC2)cc(OC)c1 [RS-39604, reference compound] please.
0.0039 µM

Report Ki for O=C1C2SCCN2C(=O)N1CCCCNCC1CCc2ccccc2O1 (racemic) please.
> 10 µM

Report Ki for O=C1C2CCCN2C(=O)N1CCCCNCCOc1ccccc1 (stereo not drawn) please.
> 10 µM

Report Ki for O=C1C2CCCN2C(=O)N1CCCCNCc1nc2ccccc2[nH]1 (stereo not drawn) please.
> 10 µM

Report Ki for COc1ccccc1CCNCCCCN1C(=O)C2CCCN2C1=O (stereo not drawn) please.
> 10 µM

###

# TARGET ENTITY: D2 receptors (Rattus norvegicus)
# Construct: (g) D2 receptors, [^3H]spiperone, rat striatum
# Sequence (P61169 whole entry): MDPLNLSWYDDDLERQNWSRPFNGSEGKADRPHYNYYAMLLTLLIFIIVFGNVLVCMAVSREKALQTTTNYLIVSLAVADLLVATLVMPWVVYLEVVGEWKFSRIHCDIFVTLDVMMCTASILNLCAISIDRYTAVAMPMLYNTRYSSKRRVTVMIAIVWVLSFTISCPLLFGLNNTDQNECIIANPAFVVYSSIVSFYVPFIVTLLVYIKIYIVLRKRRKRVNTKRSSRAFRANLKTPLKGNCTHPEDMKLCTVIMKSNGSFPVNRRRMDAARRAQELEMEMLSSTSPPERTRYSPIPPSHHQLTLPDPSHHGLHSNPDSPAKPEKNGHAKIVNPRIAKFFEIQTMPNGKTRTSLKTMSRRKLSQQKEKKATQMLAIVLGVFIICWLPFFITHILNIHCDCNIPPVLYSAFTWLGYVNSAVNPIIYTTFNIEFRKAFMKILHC
# RUN DESCRIPTION: Radioligand displacement, D2 receptors, [3H]spiperone
# EXPERIMENTAL PARAMETERS: rat striatum, read-out: Ki ± E.E. D2
ATTRIBUTE MEASURED: Ki

Report Ki for COc1ccccc1CCCCNCCCCN1C(=O)C2CCCN2C1=O (stereo not shown) please.
> 10 µM

Report Ki for COc1ccccc1CCCNCCCN1C(=O)C2CCCN2C1=O (stereo not shown) please.
> 10 µM

Report Ki for O=C1C2CCCN2C(=O)N1CCCCNCc1nc2ccccc2[nH]1 (stereo not shown) please.
> 10 µM

Report Ki for COc1ccccc1CCNCCCCN1C(=O)C2CCCN2C1=O (stereo not shown) please.
> 10 µM

Report Ki for O=C1C2CCCN2C(=O)N1CCCCNCCc1cccc2ccccc12 (stereo not shown) please.
> 10 µM

Report Ki for O=C1C2CCCN2C(=O)N1CCCCNCCOc1ccccc1 (stereo not shown) please.
> 1 µM

Report Ki for O=C1C2CCCN2C(=O)N1CCCCNCCOc1cccc2ccccc12 (stereo not shown) please.
> 1 µM

Report Ki for O=C1C2SCCN2C(=O)N1CCCCNCC1CCc2ccccc2O1 (racemic) please.
> 10 µM

Report Ki for COc1ccccc1CCCNCCCCN1C(=O)C2CCCN2C1=O (stereo not shown) please.
> 10 µM

Report Ki for O=C1CSC(=O)N1CCCCNCCOc1ccccc1 please.
> 10 µM

Report Ki for O=C1C2CCCN2C(=O)N1CCCCNCc1cccc2ccccc12 (stereo not shown) please.
> 10 µM

Report Ki for O=C1CSC(=O)N1CCCCNCCOc1cccc2ccccc12 please.
> 1 µM

Report Ki for O=C1CSC(=O)N1CCCCNCCc1cccc2ccccc12 please.
> 10 µM

###

I'd appreciate it if you could supply pEC50 values for the items below.
# TARGET ENTITY: 5-human HT1A receptor (Homo sapiens)
# Sequence (P08908 1-422): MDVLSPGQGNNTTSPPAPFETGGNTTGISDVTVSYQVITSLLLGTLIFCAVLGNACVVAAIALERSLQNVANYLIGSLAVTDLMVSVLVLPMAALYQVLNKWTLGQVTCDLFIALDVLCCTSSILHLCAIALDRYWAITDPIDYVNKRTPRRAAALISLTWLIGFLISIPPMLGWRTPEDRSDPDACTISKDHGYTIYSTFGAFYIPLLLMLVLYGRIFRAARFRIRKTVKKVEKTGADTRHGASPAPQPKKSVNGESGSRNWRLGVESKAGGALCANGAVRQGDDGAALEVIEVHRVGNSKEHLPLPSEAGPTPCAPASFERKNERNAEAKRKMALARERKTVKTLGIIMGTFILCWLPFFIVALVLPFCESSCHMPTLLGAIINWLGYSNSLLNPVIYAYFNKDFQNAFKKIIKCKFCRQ
# RUN DESCRIPTION: Test on adenylate cyclase in He-La cells (inhibition of forskolin stimulation)
# EXPERIMENTAL PARAMETERS: inhibition of forskolin-stimulated adenylate cyclase, He-La cells transfected with 5-HT1A; read-out: CE50 (the source's name)
Reminder that pEC50 is minus the log10 of a molar concentration.

Report pEC50 for O=C1CSC(=O)N1CCCCNCC1CCc2ccccc2O1 (racemic) [Compound 4] please.
7.94

Report pEC50 for O=C1C2CCCN2C(=O)N1CCCCNCCOc1ccccc1 (stereo not shown) [Compound 12] please.
7.12

Report pEC50 for O=C1C2SCCN2C(=O)N1CCCCNCC1CCc2ccccc2O1 (racemic) [Compound 2] please.
7.72

Report pEC50 for O=C1C2CSCN2C(=O)N1CCCCNCC1CCc2ccccc2O1 (racemic) [Compound 3] please.
7.50

###

Where a name gives a salt, the structure may show the parent alone.
ATTRIBUTE MEASURED: melting point

Report melting point for O=C1C2CCCN2C(=O)N1CCCCNCCc1cccc2ccccc12 (stereo not shown) (as salt: hydrochloride) please.
95 to 97 °C

Report melting point for O=C1C2CCCN2C(=O)N1CCCCNCCc1ccc2ccccc2c1 (stereo not shown) (as salt: hydrochloride) please.
130 to 132 °C

Report melting point for O=C1C2CCCN2C(=O)N1CCCCNCc1cccc2ccccc12 (stereo not shown) (as salt: hydrochloride) please.
150 to 153 °C

Report melting point for O=C1C2CCCN2C(=O)N1CCCCNCc1nc2ccccc2[nH]1 (stereo not shown) (as salt: hydrochloride) please.
208 to 210 °C

Report melting point for O=C1C2CSCN2C(=O)N1CCCCNCC1CCc2ccccc2O1 (racemic) (as salt: hydrochloride) please.
142 to 144 °C

Report melting point for O=C1CSC(=O)N1CCCCCCNCC1CCc2ccccc2O1 (racemic) (as salt: hydrochloride) please.
175 to 177 °C

Report melting point for O=C1CSC(=O)N1CCCCNCCOc1cccc2ccccc12 (as salt: hydrochloride) please.
149 to 151 °C

Report melting point for O=C1C2SCCN2C(=O)N1CCCCNCC1CCc2ccccc2O1 (racemic) (as salt: hydrochloride) please.
149 to 151 °C

Report melting point for O=C1CSC(=O)N1CCCCNCCOc1ccccc1 (as salt: hydrochloride) please.
173 to 174 °C

Report melting point for O=C1C2CCCN2C(=O)N1CCCCNCc1ccc2ccccc2c1 (stereo not shown) (as salt: hydrochloride) please.
125 to 127 °C

Report melting point for O=C1CSC(=O)N1CCCCNCCc1cccc2ccccc12 (as salt: hydrochloride) please.
128 to 129 °C

Report melting point for COc1ccccc1CCNCCCCN1C(=O)C2CCCN2C1=O (stereo not shown) (as salt: hydrochloride) please.
160 to 162 °C

Report melting point for O=C1C2CCCN2C(=O)N1CCCCNCCOc1cccc2ccccc12 (stereo not shown) (as salt: hydrochloride) please.
163 to 164 °C

###

# TARGET ENTITY: 5-HT7 receptors (Rattus norvegicus)
# Construct: (e) 5-HT7 receptors, [^3H]-5-CT, rat hypothalamus; from tissue; host or cells: rat hypothalamus
# RUN DESCRIPTION: Radioligand displacement, 5-HT7 receptors, [3H]-5-CT
# Type: binding
# EXPERIMENTAL PARAMETERS: [3H]-5-CT, rat hypothalamus; read-out: Ki ± E.E. 5-HT7
ATTRIBUTE MEASURED: Ki (nM)
The reply should be a number in nM, with the unit left off.

Report Ki for NCCc1c[nH]c2ccc(C(N)=O)cc12 [Compound 5-CT, 5-CT, reference compound] please.
1.8

Report Ki for O=C1C2CCCN2C(=O)N1CCCCNCCc1ccc2ccccc2c1 (stereo not drawn) [Compound 11] please.
74

Report Ki for O=C1CSC(=O)N1CCCCNCCOc1cccc2ccccc12 [Compound 15] please.
19.9

Report Ki for O=C1C2CCCN2C(=O)N1CCCCNCCOc1cccc2ccccc12 (stereo not drawn) [Compound 14] please.
42.6

Report Ki for O=C1CSC(=O)N1CCCCNCCOc1ccccc1 [Compound 13] please.
55
